Assay: Selectivity ratio of CC50 for African green monkey Vero cells to MIC against Staphylococcus aureus ATCC 29213
Assay type: toxicity, cell-based
assay.endpoint: selectivity ratio

>>> df
                                   compound  censoring_operator  value_observed
0  CCN1C(=O)[C@@]2(CN(C)C3(c4cc(Cl)ccc4-n4c3nc3ccccc3c4=O)C2(C#N)C#N)c2ccccc21 (stereo not given in full)                   >              80
1  CCN1C(=O)[C@@]2(CN(C)C3(c4cc([N+](=O)[O-])ccc4-n4c3nc3ccccc3c4=O)C2(C#N)C#N)c2ccccc21 (stereo not given in full)                   <              10
2  CCN1C(=O)[C@@]2(CN(C)C3(c4cc(Br)ccc4-n4c3nc3ccccc3c4=O)C2(C#N)C#N)c2ccccc21 (stereo not given in full)                   =              40
3  CCN1C(=O)[C@@]2(CN(C)C3(c4cc(OC)ccc4-n4c3nc3ccccc3c4=O)C2(C#N)C#N)c2ccccc21 (stereo not given in full)                   >              80
4  CCN1C(=O)[C@]2(c3ccccc31)C(C(=O)NCC(=O)O)NC1(c3cc(Cl)ccc3-n3c1nc1ccccc1c3=O)C2(C#N)C#N (stereo not given in full)                   =              10
